The reported numbers originate from ChEMBL document CHEMBL5230117.

assayed_system: Amine oxidase [flavin-containing] B (Homo sapiens, UniProt P27338)
Sequence (P27338 whole entry): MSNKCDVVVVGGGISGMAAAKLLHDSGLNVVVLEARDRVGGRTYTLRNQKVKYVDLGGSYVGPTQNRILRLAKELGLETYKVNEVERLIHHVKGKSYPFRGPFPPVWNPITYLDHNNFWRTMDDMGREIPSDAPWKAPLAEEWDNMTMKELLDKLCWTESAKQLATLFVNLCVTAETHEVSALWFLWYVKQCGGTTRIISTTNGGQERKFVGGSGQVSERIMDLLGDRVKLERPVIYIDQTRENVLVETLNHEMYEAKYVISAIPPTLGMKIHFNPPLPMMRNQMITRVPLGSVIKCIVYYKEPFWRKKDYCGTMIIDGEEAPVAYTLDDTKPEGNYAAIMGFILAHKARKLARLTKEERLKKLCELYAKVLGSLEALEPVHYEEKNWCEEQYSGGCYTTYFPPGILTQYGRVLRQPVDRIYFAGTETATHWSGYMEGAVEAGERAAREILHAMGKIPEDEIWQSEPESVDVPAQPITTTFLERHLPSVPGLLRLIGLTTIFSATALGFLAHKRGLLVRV
assay_method_text: Inhibition of human MAO-B using kynuramine as substrate incubated for 20 mins by fluorescence spectrophotometry assay
pIC50: −log10 of the molar value.
measurement_kind: pIC50

Known pIC50 results, listed for orientation:
smiles_code=O=C1/C(=C/c2ccccc2)CCc2cc(O)ccc21 measurement_kind=pIC50 endpoint_value=6.94
smiles_code=O=C1/C(=C/c2ccccc2)CCc2ccccc21 measurement_kind=pIC50 endpoint_value=6.94
smiles_code=O=C1/C(=C/c2ccc(Cl)cc2)CSc2ccccc21 measurement_kind=pIC50 endpoint_value=6.05

a: O=C1/C(=C/c2ccccc2)CCc2ccc(O)cc21
b: O=C1/C(=C/c2ccc(Cl)c(Cl)c2)CCc2ccc(O)cc21
IN: Problem: Given the entries a and b , determine which has the lower reported pIC50. Pick one and reply with its label.
OUT: a

P: O=C1/C(=C/c2ccccc2)CCc2c(O)cccc21
Q: O=C1/C(=C/c2ccc(Cl)cc2)CCc2ccccc21
IN: Between P and Q , whose measured pIC50 reads higher? Pick one and reply with its label.
OUT: P
(P: 6.94, Q: 6.00)

I: Nc1ccc2c(c1)CC/C(=C\c1ccccc1)C2=O
II: O=C(/C=C/c1ccc(Cl)cc1)c1ccccc1
IN: Between I and II , whose measured pIC50 reads higher? Pick one and reply with its label.
OUT: I
(I: 6.94, II: 6.02)

* * *

Recorded IC50, one value per entry.
assayed_system: Amine oxidase [flavin-containing] B (Homo sapiens, UniProt P27338)
assay_method_text: Inhibition of human MAO-B using benzylamine as substrate

smiles_code=O=C(/C=C/c1ccccc1F)c1ccc(-n2ccnc2)cc1 endpoint_value="> 10000 nM"
smiles_code=Cc1ccc(/C=C/C(=O)c2ccc(O/N=C3\CCc4ccccc43)cc2)cc1 endpoint_value="< 300 nM"
smiles_code=O=C(/C=C/c1ccc(C(F)(F)F)cc1)c1ccc(-n2ccnc2)cc1 endpoint_value="> 10000 nM"
smiles_code=COc1ccc(C(=O)/C=C/c2ccc(O/N=C(\C)c3ccccc3)cc2)cc1 endpoint_value="> 200 nM"
smiles_code=O=C(/C=C/c1cccc(F)c1)c1ccc(-n2ccnc2)cc1 endpoint_value="> 10000 nM"
smiles_code=COc1ccc(C(=O)/C=C/c2ccc(O/N=C(\C)c3ccc(OC)cc3)cc2)cc1 endpoint_value="> 200 nM"

IN: Supply recorded IC50 for `CCOc1ccc(C(=O)/C=C/c2ccc(Br)cc2)cc1` here.
OUT: 210 nM

IN: Supply recorded IC50 for `CCOc1ccc(C(=O)/C=C/c2ccc(OC)cc2)cc1` here.
OUT: 210 nM

* * *

assayed_system: Amine oxidase [flavin-containing] B (Homo sapiens)
assay_method_text: Inhibition of human MAO-B using kynuramine as substrate incubated for 20 mins by fluorescence based assay
measurement_kind: IC50 (nM)

Known IC50 results, listed for orientation:
molecule=O=C1/C(=C/c2cc3ccccc3[nH]2)Oc2ccccc21 endpoint_value=39
molecule=COc1ccc2c(=O)cc(-n3ccc4ccccc43)oc2c1 endpoint_value=280

1: Cc1ccc2c(ccn2-c2cc(=O)c3ccccc3o2)c1
2: COc1ccc2c(=O)cc(-n3cnc4ccccc43)oc2c1
3: COc1ccc2c(c1)O/C(=C\c1cc3ccccc3[nH]1)C2=O
4: O=C1CC(n2ccc3ccccc32)Oc2ccccc21 (stereo not drawn)
5: COc1ccc2c(=O)cc(-n3cncn3)oc2c1
IN: Returns the items ordered by IC50, from maximum to minimum. List the labels according to the requested ordering.
OUT: 4, 1, 2, 5, 3
(4: 2300 nM, 1: 780 nM, 2: 270 nM, 5: 19 nM, 3: 2.6 nM)

* * *

assayed_system: Amine oxidase [flavin-containing] B (Homo sapiens, UniProt P27338)
assay_method_text: Inhibition of human MAO-B by fluorescence spectrophotometry assay
measurement_kind: IC50 (µM)

smiles_code=O=C(CCc1cn(Cc2ccc3oc(-c4ccc(Cl)cc4)cc(=O)c3c2)nn1)Nc1ccc(F)cc1 assayed_system="Amine oxidase [flavin-containing] B (Homo sapiens, UniProt P27338)" measurement_kind=IC50 endpoint_value=32.9
smiles_code=O=C(CCCCc1cn(Cc2ccc3oc(-c4ccc(Cl)cc4)cc(=O)c3c2)nn1)Nc1ccccc1 assayed_system="Amine oxidase [flavin-containing] B (Homo sapiens, UniProt P27338)" measurement_kind=IC50 endpoint_value=32.9
smiles_code=O=C(CCc1cn(Cc2ccc3oc(-c4ccc(Cl)cc4)cc(=O)c3c2)nn1)Nc1ccc(Cl)cc1 assayed_system="Amine oxidase [flavin-containing] B (Homo sapiens, UniProt P27338)" measurement_kind=IC50 endpoint_value=32.9
smiles_code=Cc1ccc(NC(=O)CCCCc2cn(Cc3ccc4oc(-c5ccccc5)cc(=O)c4c3)nn2)cc1 assayed_system="Amine oxidase [flavin-containing] B (Homo sapiens, UniProt P27338)" measurement_kind=IC50 endpoint_value=15.6
smiles_code=O=C(CCc1cn(Cc2ccc3oc(-c4ccc(Cl)cc4)cc(=O)c3c2)nn1)Nc1ccccc1 assayed_system="Amine oxidase [flavin-containing] B (Homo sapiens, UniProt P27338)" measurement_kind=IC50 endpoint_value=32.9

P: O=C(CCCCc1cn(Cc2ccc3oc(-c4ccc(Cl)cc4)cc(=O)c3c2)nn1)Nc1ccc(F)cc1
Q: O=C(CCc1cn(Cc2ccc3oc(-c4ccccc4)cc(=O)c3c2)nn1)Nc1ccc(F)cc1
IN: Between P and Q , whose measured IC50 reads higher? Pick one and reply with its label.
OUT: P

1: Cc1ccc(C(=O)NCc2cn(Cc3ccc4oc(-c5ccc(Cl)cc5)cc(=O)c4c3)nn2)cc1
2: Cc1ccc(NC(=O)CCc2cn(Cc3ccc4oc(-c5ccccc5)cc(=O)c4c3)nn2)cc1
IN: Between 1 and 2 , whose measured IC50 reads higher? Pick one and reply with its label.
OUT: 1
(1: 32.9 µM, 2: 15.6 µM)

P: Cc1ccc(NC(=O)CCCCc2cn(Cc3ccc4oc(-c5ccc(Cl)cc5)cc(=O)c4c3)nn2)cc1
Q: O=C(CCCCc1cn(Cc2ccc3oc(-c4ccccc4)cc(=O)c3c2)nn1)Nc1ccccc1
IN: Problem: Given the entries P and Q , determine which has the lower reported IC50. Pick one and reply with its label.
OUT: Q
(Q: 15.6 µM, P: 32.9 µM)

* * *

Species on record: Homo sapiens
assay_method_text: Selectivity index, ratio of IC50 for human MAO-A to IC50 for human MAO-B
measurement_kind: Ratio IC50

compound=CCOc1ccc(C(=O)/C=C/c2ccccc2)cc1 endpoint_value=51
compound="O=C1CC(n2ccc3ccccc32)Oc2ccccc21 (centres undefined)" endpoint_value=2.4
compound=O=C(/C=C/c1csc2ccccc12)c1ccco1 endpoint_value=12.6
compound=O=C(/C=C/c1cccc(F)c1)c1ccc(N2CCOCC2)cc1 endpoint_value=517
compound=CCOc1ccc(C(=O)/C=C/c2ccc(F)cc2)cc1 endpoint_value=87.4

P: CC/C(C)=N/Oc1ccc(/C=C/C(=O)c2ccc(F)cc2)cc1
Q: O=C1/C(=C/c2ccc(Cl)cc2)CSc2ccccc21
IN: Between P and Q , whose measured Ratio IC50 reads higher? Pick one and reply with its label.
OUT: P
(P: 621, Q: 89)

* * *

assayed_system: Amine oxidase [flavin-containing] B (Homo sapiens, UniProt P27338)
Sequence (P27338 whole entry): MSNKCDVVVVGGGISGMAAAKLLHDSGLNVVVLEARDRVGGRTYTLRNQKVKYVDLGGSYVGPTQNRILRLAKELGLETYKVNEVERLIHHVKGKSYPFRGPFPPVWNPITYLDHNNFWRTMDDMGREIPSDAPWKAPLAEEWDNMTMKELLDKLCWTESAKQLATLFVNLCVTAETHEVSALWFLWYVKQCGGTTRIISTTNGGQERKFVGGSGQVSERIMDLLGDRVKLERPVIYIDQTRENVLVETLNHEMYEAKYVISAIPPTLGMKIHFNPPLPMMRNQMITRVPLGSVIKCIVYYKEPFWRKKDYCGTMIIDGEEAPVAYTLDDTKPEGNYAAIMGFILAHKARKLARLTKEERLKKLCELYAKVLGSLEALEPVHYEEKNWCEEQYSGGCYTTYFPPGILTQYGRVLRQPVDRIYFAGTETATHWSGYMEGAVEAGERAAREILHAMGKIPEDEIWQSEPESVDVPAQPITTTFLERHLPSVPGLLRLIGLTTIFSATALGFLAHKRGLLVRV
assay_method_text: Inhibition of human MAO-B using benzylamine as substrate
measurement_kind: IC50 (nM)

smiles_code=CCOc1ccc(C(=O)/C=C/c2ccc(CC)cc2)cc1 unit=nM endpoint_value=210
smiles_code=CCOc1ccc(C(=O)/C=C/c2ccc([N+](=O)[O-])cc2)cc1 unit=nM endpoint_value=210
smiles_code=CCc1ccc(/C=C/C(=O)c2ccc(-n3ccnc3)cc2)cc1 unit=nM endpoint_value=320
smiles_code=CCOc1ccc(C(=O)/C=C/c2ccc(N(C)C)cc2)cc1 unit=nM endpoint_value=210

a: CC/C(C)=N/Oc1ccc(C(=O)/C=C/c2ccccc2)cc1
b: CCOc1ccc(C(=O)/C=C/c2ccc(Cl)cc2)cc1
IN: Problem: Given the entries a and b , determine which has the lower reported IC50. Pick one and reply with its label.
OUT: a
(a: 86 nM, b: 210 nM)

a: Cc1ccc(/C=C/C(=O)c2ccc(-n3ccnc3)cc2)cc1
b: CCOc1ccc(C(=O)/C=C/c2ccccc2)cc1
c: CC/C(C)=N/Oc1ccc(/C=C/C(=O)c2ccc(F)cc2)cc1
IN: Returns the items ordered by IC50, from maximum to minimum. List the labels according to the requested ordering.
OUT: a, b, c
(a: 320 nM, b: 210 nM, c: 28 nM)
